- TGT: human CRTH2 receptor (Homo sapiens, UniProt Q9Y5Y4)
- Construct: membranes prepared in house from the purchased cell line
- Sequence (Q9Y5Y4 whole entry): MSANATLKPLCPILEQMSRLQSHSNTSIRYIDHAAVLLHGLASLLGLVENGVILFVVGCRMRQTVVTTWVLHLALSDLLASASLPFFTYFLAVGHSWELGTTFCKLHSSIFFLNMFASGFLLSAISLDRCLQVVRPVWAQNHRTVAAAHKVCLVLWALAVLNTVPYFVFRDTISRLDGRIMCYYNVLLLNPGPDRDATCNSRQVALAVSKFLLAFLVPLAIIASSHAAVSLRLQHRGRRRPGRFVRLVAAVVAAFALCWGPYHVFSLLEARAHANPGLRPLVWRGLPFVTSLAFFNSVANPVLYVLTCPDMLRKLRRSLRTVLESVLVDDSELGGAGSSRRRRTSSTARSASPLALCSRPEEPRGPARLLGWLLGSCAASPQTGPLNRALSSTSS
- PROTOCOL: Human CRTH2 receptor membrane radioligand binding assay (SPA, [3H]-PGD2)
- MEASUREMENT PARAMETERS: displacement of [3H]-PGD2 (1 nM) from CHO-K1-hCRTH2 cell membranes, 3 h room temperature
- Protocol: Preparation of Human CRTH2 Receptor Membranes and Radioligand Binding Assay The binding of CRTH2 antagonists is determined using membranes prepared from Chinese hamster ovary cells (CHO-K1 cells) transfected with the human CRTH2 receptor (CHO-K1-hCRTH2 cells, Perkin Elmer, Cat No ES-561-C). To produce cell membranes the CHO-K1-hCRTH2 cells are cultured in suspension in CHO SFMII medium supplemented with 400 μg/ml G418. […]
pKi: −log10 of the molar value.
Short version: pKi at least 6 is True, less is False.

query: Please check the record Cc1nn(Cc2ccc(NC(=O)c3ccccc3)cc2)c(C)c1CCC(=O)O [Example 8.3] and state if its pKi is at or above 6.
result: False

====

- TGT: human CRTH2 receptor (Homo sapiens, UniProt Q9Y5Y4)
- Construct: membranes prepared in house from the purchased cell line
- PROTOCOL: Human CRTH2 receptor membrane radioligand binding assay (SPA, [3H]-PGD2)
- MEASUREMENT PARAMETERS: displacement of [3H]-PGD2 (1 nM) from CHO-K1-hCRTH2 cell membranes, 3 h room temperature
Ki values for the molecules below.
Express your answer in nM, writing the number without its unit.

Answered cases to consult:
| MOLECULE | UNIT ABBREV | Ki |
| --- | --- | --- |
| Cc1nn(Cc2ccc(NC(=O)c3ccc(C(F)(F)F)cc3)cc2)c(C)c1CC(=O)O | nM | 2.9 |
| Cc1nn(Cc2ccc(NC(=O)OCc3ccccc3)cc2)c(C)c1CC(=O)O | nM | 3.8 |
| Cc1nn(Cc2ccc(NC(=O)c3ccc(C(F)(F)F)cc3)cc2)c(-c2ccccc2)c1CC(=O)O | nM | 1.8 |
| CCc1nn(Cc2ccc(C(=O)Nc3ccc4ccccc4n3)cc2)c(CC)c1CC(=O)O | nM | 4 |
| Cc1nn(Cc2ccc([S+]([O-])Cc3ccc4ccccc4c3)cc2)c(C)c1CC(=O)O (centres unmarked) | nM | 43.5 |
| CCc1nn(Cc2ccc(NC(=O)C3CCC3)cc2)c(CC)c1CC(=O)O | nM | 5 |
| CCc1nn(Cc2ccc(C(=O)Nc3ccc(Cl)c(F)c3)cc2)c(CC)c1CC(=O)O | nM | 7.1 |
| Cc1nn(Cc2ccc(NC(=O)OC(C)(C)C)cc2)c(C)c1CC(=O)O | nM | 28.6 |
| Cc1nn(Cc2ccc(NC(=O)c3ccc(Cl)cc3Br)cc2)c(C)c1CC(=O)O | nM | 12.4 |
| Cc1nn(Cc2ccc(NC(=O)c3ccc(C(F)(F)F)cc3F)cc2)c(C)c1CC(=O)O | nM | 3320 |

query: Consider the molecule `Cc1nn(Cc2ccc(NCc3ccc(Cl)cc3)cc2)c(C)c1CC(=O)O` and give its recorded Ki.
result: 438

query: Consider the molecule `CCc1nn(Cc2ccc(NC(=O)OCc3ccccc3Br)cc2)c(CC)c1CC(=O)O` and give its recorded Ki.
result: 3.5

query: Consider the molecule `Cc1nn(Cc2ccc(NC(=O)c3ccc(C(F)(F)F)cc3)cc2)c(C)c1CCC(=O)O` and give its recorded Ki.
result: 125

query: Consider the molecule `COc1ccc(C(=O)Nc2ccc(Cn3nc(C)c(CC(=O)O)c3C)cc2)cc1` and give its recorded Ki.
result: 12.9

query: Consider the molecule `CCc1nn(Cc2ccc(S(=O)(=O)Nc3ccc(C)c(Cl)c3)cc2)c(CC)c1CC(=O)O` and give its recorded Ki.
result: 16.1

query: Consider the molecule `CCc1nn(Cc2ccc(C(=O)Nc3ccc(F)c(Cl)c3)cc2)c(CC)c1CC(=O)O` and give its recorded Ki.
result: 4.8

query: Consider the molecule `CCc1nn(Cc2ccc(OCc3cccc(Cl)c3)cc2)c(CC)c1CC(=O)O` and give its recorded Ki.
result: 39.1
